Value source: patent US12421253B2

- system.name: KRas^G12V (Homo sapiens, UniProt P01116, G12V)
- Construct: […]; biotin (biotinylated)
- Sequence (P01116 1-169 isoform P01116-2 G12V): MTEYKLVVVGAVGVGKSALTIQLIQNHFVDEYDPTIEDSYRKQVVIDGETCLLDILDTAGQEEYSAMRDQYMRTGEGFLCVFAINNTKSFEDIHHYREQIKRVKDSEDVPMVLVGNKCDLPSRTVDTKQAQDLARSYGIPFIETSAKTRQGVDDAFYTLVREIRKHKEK
- experiment.notes: KRas binding assay (TR-FRET displacement of Cy5 labelled tracer)
pIC50: −log10 of the molar value.
reported.metric: pIC50

(1) CCc1cccc2cccc(N3CCc4c(nc(OCC56CCCN5CCC6)nc4N4CCC(O)CC(C)C4)C3)c12 (stereo not drawn) [Example 92]
(2) O=C1NC(=O)C2CN(c3nc(OCC45CCCN4CCC5)nc4c3CCN(c3cccc5cccc(F)c35)C4)CC12 (stereo not drawn) [Example 81]
Problem: Given the listed records, identify the one among 1 and 2 with higher pIC50. Please reply using the label of the selected record.
Result: 1

###

- system.name: KRas^G12V (Homo sapiens, UniProt P01116, G12V)
- Construct: […]; biotin (biotinylated)
- experiment.notes: KRas binding assay (TR-FRET displacement of Cy5 labelled tracer)
pIC50: −log10 of the molar value.
reported.metric: pIC50

{"compound": "CCc1cccc2cccc(N3CCc4c(nc(OCC56CCCN5CCC6)nc4N4CCC(O)C(CO)C4)C3)c12 (stereo not drawn)", "observed.measurement": 6.16}

(a) CCc1cccc2cccc(N3CCc4c(nc(OCC56CCCN5CCC6)nc4N4CCCC(N5CCCS5(=O)=O)C4)C3)c12 (stereo not drawn)
(b) CCc1cccc2cccc(N3CCc4c(nc(OCC56CCCN5CCC6)nc4N4CCCC(S(=O)(=O)NC)C4)C3)c12 (stereo not drawn)
Problem: Could you tell me which of these two has the smaller pIC50 figure? First: a Second: b Please reply using the label of the selected record.
Result: b

###

- system.name: KRas^G12D (Homo sapiens, UniProt P01116, G12D)
- Construct: […]; biotin (biotinylated)
- Sequence (P01116 1-169 isoform P01116-2 G12D): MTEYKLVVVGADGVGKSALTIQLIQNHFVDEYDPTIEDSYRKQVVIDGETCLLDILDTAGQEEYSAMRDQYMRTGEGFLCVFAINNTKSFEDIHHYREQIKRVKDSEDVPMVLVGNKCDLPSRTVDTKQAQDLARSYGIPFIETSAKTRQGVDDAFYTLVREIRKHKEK
- experiment.notes: KRas binding assay (TR-FRET displacement of Cy5 labelled tracer)
reported.metric: pIC50
Scale: pIC50 equals -log10([C]), with [C] in mol/L.

{"compound": "CCc1c(F)ccc2cc(O)cc(N3CCc4c(nc(OC[C@@]56CCCN5C[C@H](F)C6)nc4N4CCCC(c5ncn[nH]5)C4)C3)c12 (stereo partly shown)", "pIC50": 7.59}

Proceeding to the next compound to report its pIC50.
Problem: Bench note: what pIC50 did CCc1cccc2cccc(N3CCc4c(nc(OCC56CCCN5CCC6)nc4N4CCC(O)C(CO)C4)C3)c12 (stereo not shown) show?
Result: 5.75

###

- system.name: KRas^G12V (Homo sapiens, UniProt P01116, G12V)
- Construct: […]; biotin (biotinylated)
- experiment.notes: KRas binding assay (TR-FRET displacement of Cy5 labelled tracer)
pIC50: −log10 of the molar value.
reported.metric: pIC50

Check out these entries, answers already filled in.
{"compound": "CCc1c(F)ccc2cc(O)cc(N3CCc4c(nc(OC[C@@]56CCCN5C[C@H](F)C6)nc4N4CC5CC(O)CC(C5)C4)C3)c12 (some centres unmarked)", "pIC50": 7.00}
{"compound": "CCc1c(F)ccc2cc(O)cc(N3CCc4c(nc(OC[C@@]56CCCN5C[C@H](F)C6)nc4N4C[C@H]5C[C@H](O)C[C@H]5C4)C3)c12", "pIC50": 7.27}
{"compound": "CCc1cccc2cccc(N3CCc4c(nc(OCC56CCCN5CCC6)nc4N4C[C@@H]5C(=O)NC(=O)[C@@H]5C4)C3)c12", "pIC50": 7.74}

(P) CCc1cccc2cccc(N3CCc4c(nc(OCC56CCCN5CCC6)nc4N4CCOCC(n5cncn5)C4)C3)c12 (centres unmarked)
(Q) CC1(O)COCCN(c2nc(OC[C@@]34CCCN3C[C@H](F)C4)nc3c2CCN(c2cc(O)cc4ccc(F)c(Cl)c24)C3)C1 (some centres unmarked)
(R) CCc1cccc2cccc(N3CCc4c(nc(OCC56CCCN5CCC6)nc4N4CCCC(c5nc(C)c(C(=O)NC6CCC6)o5)C4)C3)c12 (centres unmarked)
Problem: Order the records so the highest pIC50 appears first and the lowest last. A ranking is expressed here by listing the labels in the requested order.
Result: Q, P, R

###

- system.name: KRas^G12C (Homo sapiens, UniProt P01116, G12C)
- Sequence (P01116 1-169 isoform P01116-2 G12C): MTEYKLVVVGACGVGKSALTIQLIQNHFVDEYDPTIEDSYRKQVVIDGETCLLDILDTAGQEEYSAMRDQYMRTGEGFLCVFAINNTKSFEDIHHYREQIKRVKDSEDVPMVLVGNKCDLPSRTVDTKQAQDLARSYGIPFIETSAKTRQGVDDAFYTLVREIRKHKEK
- experiment.notes: biochemical
pIC50: −log10 of the molar value.
reported.metric: pIC50

Check out these entries, answers already filled in.
{"compound": "CCc1cccc2cccc(N3CCc4c(nc(OCC56CCCN5CCC6)nc4N4CCCCCCC4)C3)c12 [Example 54]", "system.name": "KRas^G12C (Homo sapiens, UniProt P01116, G12C)", "pIC50": 6.12}
{"compound": "CCc1cccc2cccc(N3CCc4c(nc(OCC56CCCN5CCC6)nc4NCc4cccnc4-n4cncn4)C3)c12 [Example 142]", "system.name": "KRas^G12C (Homo sapiens, UniProt P01116, G12C)", "pIC50": 5.90}

(I) CCc1cccc2cccc(N3CCc4c(nc(OCC56CCCN5CCC6)nc4N4CC5CNC(=O)C5C4)C3)c12 (centres unmarked) [Example 52]
(II) CCc1cccc2cccc(N3CCc4c(nc(OCC56CCCN5CCC6)nc4N4CCCC(c5c[nH]cn5)C4)C3)c12 (centres unmarked) [Example 116]
(III) CCc1cccc2cccc(N3CCc4c(nc(OCC56CCCN5CCC6)nc4NCc4ccc5nncn5c4)C3)c12 [Example 39]
Problem: Order the records so the highest pIC50 appears first and the lowest last. A ranking is expressed here by listing the labels in the requested order.
Result: III, I, II
(III: 6.50, I: 6.18, II: 5.95)

(I) CCc1cccc2cccc(N3CCc4c(nc(OCC56CCCN5CCC6)nc4N4CCN(c5ccncn5)CC4)C3)c12 [Example 58]
(II) CCc1cccc2cccc(N3CCc4c(nc(OCC56CCCN5CCC6)nc4N4CCC(OCC(N)=O)CC4)C3)c12 [Example 89]
Problem: Given the listed records, identify the one among I and II with higher pIC50. Please reply using the label of the selected record.
Result: II
(II: 6.33, I: 5.18)

###

- system.name: KRas^Q61H (Homo sapiens, UniProt P01116, Q61H)
- Sequence (P01116 1-169 isoform P01116-2 Q61H): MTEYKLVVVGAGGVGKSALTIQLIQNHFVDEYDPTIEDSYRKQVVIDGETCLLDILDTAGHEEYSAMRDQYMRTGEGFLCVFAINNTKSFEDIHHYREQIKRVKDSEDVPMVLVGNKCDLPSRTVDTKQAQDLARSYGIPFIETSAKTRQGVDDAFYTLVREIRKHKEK
- experiment.notes: biochemical
pIC50: −log10 of the molar value.
reported.metric: pIC50

Check out these entries, answers already filled in.
{"compound": "CCc1cccc2cccc(N3CCc4c(nc(OCC56CCCN5CCC6)nc4N4CCCC(c5ncc(C)s5)C4)C3)c12 (stereo not drawn)", "pIC50": 5.55}
{"compound": "CCc1cccc2cccc(N3CCc4c(nc(OCC56CCCN5CCC6)nc4NC4CC(=O)N(c5cnn(C)c5)C4)C3)c12 (stereo not drawn)", "pIC50": 5.26}

(P) CCc1cccc2cccc(N3CCc4c(nc(OCC56CCCN5CCC6)nc4N4C[C@@H](C)C[C@H](O)C4)C3)c12
(Q) O=C1NC(=O)C2CN(c3nc(OCC45CCCN4CCC5)nc4c3CCN(c3cccc5cccc(Br)c35)C4)CC12 (stereo not drawn)
(R) CCc1cccc2cccc(N3CCc4c(nc(OCC56CCCN5CCC6)nc4N4CCCC(c5nc(C)no5)C4)C3)c12 (stereo not drawn)
(S) CCc1cccc2cccc(N3CCc4c(nc(OCC56CCCN5CCC6)nc4N4CCCC(c5n[nH]c(C6CC6)n5)C4)C3)c12 (stereo not drawn)
Problem: Order the records so the highest pIC50 appears first and the lowest last. A ranking is expressed here by listing the labels in the requested order.
Result: Q, P, S, R

###

- system.name: KRas^G12R (Homo sapiens, UniProt P01116, G12R)
- Construct: […]; biotin (biotinylated)
- Sequence (P01116 1-169 isoform P01116-2 G12R): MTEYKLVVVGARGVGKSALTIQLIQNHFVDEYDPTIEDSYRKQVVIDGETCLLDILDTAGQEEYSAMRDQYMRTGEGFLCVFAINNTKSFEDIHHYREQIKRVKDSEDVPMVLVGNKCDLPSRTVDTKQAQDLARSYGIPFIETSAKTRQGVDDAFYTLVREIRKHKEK
- experiment.notes: KRas binding assay (TR-FRET displacement of Cy5 labelled tracer)
reported.metric: pIC50
Scale: pIC50 equals -log10([C]), with [C] in mol/L.

Check out these entries, answers already filled in.
{"compound": "CCc1cccc2cccc(N3CCc4c(nc(OCC56CCCN5CCC6)nc4N4CC(C)CC(CO)C4)C3)c12 (stereo not drawn)", "observed.measurement": 6.11}
{"compound": "CCc1c(F)ccc2cc(O)cc(N3CCc4c(nc(OC[C@@]56CCCN5C[C@H](F)C6)nc4N4CCCCCC(S(C)(=O)=O)C4)C3)c12 (stereo partly drawn)", "observed.measurement": 8.30}
{"compound": "CCc1c(F)ccc2cc(O)cc(N3CCc4c(nc(OC[C@@]56CCCN5C[C@H](F)C6)nc4N4CCC(c5[nH]ncc5N)C4)C3)c12 (stereo partly drawn)", "observed.measurement": 8.30}

Proceeding to the next compound to report its pIC50.
Problem: Bench note: what pIC50 did CCc1c(F)ccc2cc(O)cc(N3CCc4c(nc(OC[C@@]56CCCN5C[C@H](F)C6)nc4N4CCCC(c5ncn[nH]5)C4)C3)c12 (stereo partly drawn) show?
Result: 8.40

###

- Test system: PSN1 cells, pERK
- experiment.notes: Inhibition of KRas phosphorylation of ERK (Cisbio HTRF Advanced pERK assay)
- Assay type: cell-based
- measurement.setup: Homo sapiens, PSN1, 3 h, read-out: Inhibition (HTRF IC50 nM) of KRas-mediated Phosphorylation of ERK, PSN1
reported.metric: IC50

Check out these entries, answers already filled in.
{"compound": "CCc1c(F)ccc2cc(O)cc(N3CCc4c(nc(OC[C@@]56CCCN5C[C@H](F)C6)nc4N4CCCC(O)C4)C3)c12 (stereo partly drawn)", "reported.metric": "IC50", "observed.measurement": "2720 nM"}
{"compound": "CCc1c(F)ccc2cc(O)cc(N3CCc4c(nc(OC[C@@]56CCCN5C[C@H](F)C6)nc4NCc4ccc5nncn5c4)C3)c12", "reported.metric": "IC50", "observed.measurement": "≥ 10000 nM"}
{"compound": "CCc1c(F)ccc2cc(O)cc(N3CCc4c(nc(OC[C@@]56CCCN5C[C@H](F)C6)nc4N4CCC(O)C(CO)CC4)C3)c12 (stereo partly drawn)", "reported.metric": "IC50", "observed.measurement": "≥ 10000 nM"}
{"compound": "CCc1c(F)ccc2cc(O)cc(N3CCc4c(nc(OC[C@@]56CCCN5C[C@H](F)C6)nc4N4CCCc5ncccc5C4)C3)c12", "reported.metric": "IC50", "observed.measurement": "≥ 10000 nM"}
{"compound": "CCc1c(F)ccc2cc(O)cc(N3CCc4c(nc(OC[C@@]56CCCN5C[C@H](F)C6)nc4N4CCCC(O)(C(F)F)C4)C3)c12 (stereo partly drawn)", "reported.metric": "IC50", "observed.measurement": "1540 nM"}

Proceeding to the next compound to report its IC50.
Problem: Request: IC50, test system PSN1 cells, pERK, entry CCc1c(F)ccc2cc(O)cc(N3CCc4c(nc(OC[C@@]56CCCN5C[C@H](F)C6)nc4N4CCCC(c5ncn[nH]5)C4)C3)c12 (stereo partly drawn)
Result: ≥ 10000 nM
